// data source = patent US8563714B2

Target: human ALX receptor (Homo sapiens, UniProt P25090)
Sequence (P25090 whole entry): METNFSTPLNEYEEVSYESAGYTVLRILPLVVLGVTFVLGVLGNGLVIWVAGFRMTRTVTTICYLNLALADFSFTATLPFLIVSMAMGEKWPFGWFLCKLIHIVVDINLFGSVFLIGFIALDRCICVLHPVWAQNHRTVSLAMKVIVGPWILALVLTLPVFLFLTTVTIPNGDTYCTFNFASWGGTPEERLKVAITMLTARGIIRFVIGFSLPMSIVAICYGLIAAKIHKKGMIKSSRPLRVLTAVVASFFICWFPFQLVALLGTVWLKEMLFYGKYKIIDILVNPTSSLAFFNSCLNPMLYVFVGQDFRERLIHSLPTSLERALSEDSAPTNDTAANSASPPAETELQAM
Experiment: Intracellular calcium measurements (FLIPR), agonistic activity in HEK293-hALXR-Gα16 cells
Conditions: Fluo-4 calcium FLIPR, normalized to WKYMVm 10 nM
MEASUREMENT NAME: pEC50
For clarity, pEC50 is expressed as the negative log10 of concentration in mol/L.

| MOLECULE | VALUE REPORTED |
| --- | --- |
| COc1c(F)cc(CNC(=O)[C@H]2[C@H](C(=O)NCCCCN3CCCC3)[C@H]3C=C[C@@H]2C32CC2)cc1F (racemic) | 6.92 |

Measured pEC50 of O=C(NC1CCN(Cc2ccccc2)CC1)[C@H]1[C@H](C(=O)Nc2ccc(Br)cc2)[C@@H]2C=C[C@H]1C21CC1 (racemic) : 6.91

Form field pEC50, entry CC(=O)c1csc(CNC(=O)[C@H]2[C@H](C(=O)NCCCCN3CCCC3)[C@H]3C=C[C@@H]2C32CC2)n1 (racemic) : 6.85

Value of measured pEC50 for the entry O=C(NCCCCN1CCCC1)[C@H]1[C@H](C(=O)Nc2ccc3ncoc3c2)[C@@H]2C=C[C@H]1C21CC1 (racemic) : 6.31
